Where do the numbers come from? From ChEMBL document CHEMBL3526058.

# Procedure text: Mean residence time in P-gp-knockout Sprague-Dawley rat at 2 mg/kg, iv
# Type: ADME, organism-based
# Parameters: dose 2 mg/kg, route intravenous
# Measurement conditions: in vivo

| Smiles representation | Value unit | MRT |
| --- | --- | --- |
| COc1ccc(-n2nc(C(N)=O)c3c2[14C](=O)N(c2ccc(N4CCCCC4=O)cc2)CC3)cc1 | min | 48 |

###

# Procedure text: Drug recovery in urine of bile duct-cannulated Sprague-Dawley rat at 2 mg/kg, iv measured up to 24 hrs
# Type: ADME, organism-based
# Design: dose 2 mg/kg, route intravenous
# Measurement conditions: read-out: Drug recovery

| Smiles representation | dose excreted at 24 h / % |
| --- | --- |
| COc1ccc(-n2nc(C(N)=O)c3c2[14C](=O)N(c2ccc(N4CCCCC4=O)cc2)CC3)cc1 | 49.5 |

###

# Procedure text: Volume of distribution at steady state in wild-type bile duct-cannulated Sprague-Dawley rat at 2 mg/kg, iv administered 0.125 hr post GF-120918 treatment
# Type: ADME, organism-based
# Parameters: dose 2 mg/kg, route intravenous
# Measurement conditions: in vivo, with GF-120918, read-out: Vdss

| Smiles representation | Value unit | Vd |
| --- | --- | --- |
| COc1ccc(-n2nc(C(N)=O)c3c2[14C](=O)N(c2ccc(N4CCCCC4=O)cc2)CC3)cc1 | L/kg | 1.6 |

###

# Procedure text: Volume of distribution at steady state in bile duct-cannulated beagle dog at 1 mg/kg, iv administered as 5 mins infusion
# Format: ADME, organism-based, Canis lupus familiaris
# Set-up: dose 1 mg/kg, route intravenous
# Measurement conditions: in vivo, read-out: Vdss

| Smiles representation | Vd (L/kg) |
| --- | --- |
| COc1ccc(-n2nc(C(N)=O)c3c2[14C](=O)N(c2ccc(N4CCCCC4=O)cc2)CC3)cc1 | 0.2 |

###

# Procedure text: Mean residence time in P-gp-knockout Sprague-Dawley rat at 4 mg/kg, po
# Assay type: ADME, organism-based
# Design: dose 4 mg/kg, route oral
# Measurement conditions: in vivo

| Smiles representation | Value unit | MRT |
| --- | --- | --- |
| COc1ccc(-n2nc(C(N)=O)c3c2C(=O)N(c2ccc(N4CCCCC4=O)cc2)CC3)cc1 | h | 3.8 |

###

# Procedure text: AUC (0 to 24 hrs) in beagle dog at 5 mg/kg, po followed by activated charcoal administration 3 hrs post compound dosing
# Assay type: ADME, organism-based, Canis lupus familiaris
# Design: time < 24 hr, dose 5 mg/kg, route oral
# Measurement conditions: plasma

| Smiles representation | AUC(0-t) at 24 h (ng·h/mL) |
| --- | --- |
| COc1ccc(-n2nc(C(N)=O)c3c2C(=O)N(c2ccc(N4CCCCC4=O)cc2)CC3)cc1 | 49200 |

###

# Procedure text: Drug recovery in bile of bile duct-cannulated beagle dog at 1 mg/kg, iv administered as 5 mins infusion followed by activated charcoal administration 10 to 420 mins post compound measured up to 72 hrs
# Type: ADME, organism-based, Canis lupus familiaris
# Parameters: dose 1 mg/kg, route intravenous
# Measurement conditions: read-out: Drug recovery
Result type: dose excreted (%)

| Smiles representation | Value measured |
| --- | --- |
| COc1ccc(-n2nc(C(N)=O)c3c2[14C](=O)N(c2ccc(N4CCCCC4=O)cc2)CC3)cc1 | 13.1 |

###

# Procedure text: Oral bioavailability in beagle dog at 5 mg/kg followed by activated charcoal administration 1 hr post compound dosing
# Type: ADME, organism-based, Canis lupus familiaris
# Measurement conditions: in vivo

| Smiles representation | Value unit | bioavailability |
| --- | --- | --- |
| COc1ccc(-n2nc(C(N)=O)c3c2C(=O)N(c2ccc(N4CCCCC4=O)cc2)CC3)cc1 | % | 99 |

###

# Procedure text: Drug recovery in feces of bile duct-cannulated beagle dog at 1 mg/kg, iv administered as 5 mins infusion measured up to 72 hrs
# Assay type: ADME, organism-based, Canis lupus familiaris
# Design: dose 1 mg/kg, route intravenous
# Measurement conditions: read-out: Drug recovery
Result type: dose excreted (%)

| Smiles representation | Value unit | Value measured |
| --- | --- | --- |
| COc1ccc(-n2nc(C(N)=O)c3c2[14C](=O)N(c2ccc(N4CCCCC4=O)cc2)CC3)cc1 | % | 42.7 |

###

# Procedure text: Oral steady-state volume of distribution in beagle dog at 5 mg/kg followed by activated charcoal administration 0.25 hrs post compound dosing
# Type: ADME, organism-based, Canis lupus familiaris
# Design: dose 5 mg/kg
# Measurement conditions: in vivo, read-out: Vss/F
Result type: Vd/F (L/kg)

| Smiles representation | Value unit | Value measured |
| --- | --- | --- |
| COc1ccc(-n2nc(C(N)=O)c3c2C(=O)N(c2ccc(N4CCCCC4=O)cc2)CC3)cc1 | L/kg | 0.5 |

###

# Procedure text: Half life in P-gp-knockout Sprague-Dawley rat at 2 mg/kg, iv
# Type: ADME, organism-based
# Set-up: dose 2 mg/kg, route intravenous
# Measurement conditions: in vivo

| Smiles representation | Value unit | half-life |
| --- | --- | --- |
| COc1ccc(-n2nc(C(N)=O)c3c2[14C](=O)N(c2ccc(N4CCCCC4=O)cc2)CC3)cc1 | h | 1.1 |

###

# Procedure text: Drug recovery in urine of 30 mins activated charcoal pre-treated bile duct-cannulated Sprague-Dawley rat at 2 mg/kg, iv followed by activated charcoal administration 5 to 180 mins post compound dosing measured up to 48 hrs
# Assay type: ADME, organism-based
# Set-up: dose 2 mg/kg, route intravenous
# Measurement conditions: read-out: Drug recovery
Result type: dose excreted

| Smiles representation | Value measured |
| --- | --- |
| COc1ccc(-n2nc(C(N)=O)c3c2[14C](=O)N(c2ccc(N4CCCCC4=O)cc2)CC3)cc1 | 40.7% |

###

# Procedure text: Clearance in wild-type bile duct-cannulated Sprague-Dawley rat at 2 mg/kg, iv administered 0.125 hr post GF-120918 treatment
# Type: ADME, organism-based
# Set-up: dose 2 mg/kg, route intravenous
# Measurement conditions: in vivo, with GF-120918
Result type: clearance (mL/min/kg)

| Smiles representation | Value measured |
| --- | --- |
| COc1ccc(-n2nc(C(N)=O)c3c2[14C](=O)N(c2ccc(N4CCCCC4=O)cc2)CC3)cc1 | 11.7 |

###

# Procedure text: Apparent oral clearance in beagle dog at 5 mg/kg, po followed by activated charcoal administration 1 hr post compound dosing
# Assay type: ADME, organism-based, Canis lupus familiaris
# Set-up: dose 5 mg/kg, route oral
# Measurement conditions: in vivo
Result type: CL/F (L/h/kg)

| Smiles representation | Result type | Value measured |
| --- | --- | --- |
| COc1ccc(-n2nc(C(N)=O)c3c2C(=O)N(c2ccc(N4CCCCC4=O)cc2)CC3)cc1 | CL/F | 0.077 |

###

# Procedure text: Drug recovery in feces of bile duct-cannulated P-gp-knockout Sprague-Dawley rat at 2 mg/kg, iv measured up to 24 hrs
# Format: ADME, organism-based
# Design: dose 2 mg/kg, route intravenous
# Measurement conditions: read-out: Drug recovery

| Smiles representation | dose excreted at 24 h / % |
| --- | --- |
| COc1ccc(-n2nc(C(N)=O)c3c2[14C](=O)N(c2ccc(N4CCCCC4=O)cc2)CC3)cc1 | 24.9 |

###

# Procedure text: Drug recovery in feces of 30 mins activated charcoal pre-treated bile duct-cannulated Sprague-Dawley rat at 2 mg/kg, iv followed by activated charcoal administration 5 to 180 mins post compound dosing measured up to 48 hrs
# Type: ADME, organism-based
# Set-up: dose 2 mg/kg, route intravenous
# Measurement conditions: read-out: Drug recovery

| Smiles representation | dose excreted [%] |
| --- | --- |
| COc1ccc(-n2nc(C(N)=O)c3c2[14C](=O)N(c2ccc(N4CCCCC4=O)cc2)CC3)cc1 | 28.8 |

###

# Procedure text: Drug recovery in feces of Sprague-Dawley rat at 30 mg/kg, po measured up to 168 hrs
# Format: ADME, organism-based
# Set-up: dose 30 mg/kg, route oral
# Measurement conditions: read-out: Drug recovery

| Smiles representation | Value unit | dose excreted at 168 h |
| --- | --- | --- |
| COc1ccc(-n2nc(C(N)=O)c3c2[14C](=O)N(c2ccc(N4CCCCC4=O)cc2)CC3)cc1 | % | 74 |

###

# Procedure text: Plasma concentration in beagle dog at 5 mg/kg, po followed by activated charcoal administration 0.25 hrs post compound dosing measured at 8 hrs
# Format: ADME, organism-based, Canis lupus familiaris
# Set-up: dose 5 mg/kg, route oral
Result type: concentration at 8 h (ng/mL)

| Smiles representation | Value measured |
| --- | --- |
| COc1ccc(-n2nc(C(N)=O)c3c2C(=O)N(c2ccc(N4CCCCC4=O)cc2)CC3)cc1 | 2820 |
